src = PubChem BioAssay AID686978

assay_summary: qHTS for Inhibitors of human tyrosyl-DNA phosphodiesterase 1 (TDP1): qHTS in cells in absence of CPT; further: nearly all actives have a fitted effect of over 55% in size
test_conditions: DT40 Tdp1-/- hTDP1 cells, no CPT, ATP luminescence, 48 h
Hit rate of the full screen: of about 420,000 compounds, about 64,000 (15%) were called active. Not shown: some 27% with an inconclusive outcome. The call rests on the fitted dose curve; in most records, active means well fitted inhibition curve with a large enough effect; inconclusive means small, poorly fitted or top-dose-only effect; inactive means flat fitted curve, though single readings scatter. The list is a sample of the results.
Hi there, use one of these labels in your reply, thanks! active, inactive

Query: Entry O=C(CN1CCOC1=O)N1CCCC(Nc2ccc(F)c(F)c2)C1 (stereo unspecified) : call = ?
Reply: inactive

Query: Entry `Cc1cccc(OCCCC(=O)Nc2ccc(S(=O)(=O)N3CCCC3)cc2)c1` : call = ?
Reply: active

Query: Entry `Cc1ccc(-n2ncc3c(=O)[nH]cnc32)c(C)c1` : call = ?
Reply: inactive

Query: Entry `CC(=O)Nc1ccc(S(=O)(=O)N2CCN(CCCOc3cc(C)ccc3C)CC2)cc1` : call = ?
Reply: active

Query: Entry COCCCNC(NC(=O)c1ccc(OC)cc1)C(Cl)(Cl)Cl (stereo unspecified) : call = ?
Reply: inactive

Query: Entry `COc1ccc(NC(=O)CSc2nnc(C3CC3)n2C)cc1S(=O)(=O)N1CCCCC1` : call = ?
Reply: inactive

Query: Entry CC(=O)NC1=NN(C(C)=O)C(C)(c2ccc(Cl)s2)S1 (stereo unspecified) : call = ?
Reply: active

Query: Entry `Cc1ccc(C)c(S(=O)(=O)N2CCN(C(=O)Nc3ccccc3)CC2)c1` : call = ?
Reply: inactive

Query: Entry COc1cc(C(CC(=O)NCCC(C)C)N2Cc3ccccc3C2=O)cc(OC)c1OC (stereo unspecified) : call = ?
Reply: inactive

Query: Entry `Cc1ccc(C)c(OCCC(=O)OCC(=O)N2CCN(c3ccccc3)CC2)c1` : call = ?
Reply: inactive

Query: Entry `FC(F)(F)c1ccccc1-c1nc(-n2ccnc2)c2ccccc2n1` : call = ?
Reply: inactive

Query: Entry `O=C(NC1=NCCS1)c1ccc(Cl)s1` : call = ?
Reply: inactive

Query: Entry `Cc1ccc(C)c(S(=O)(=O)N2CCN(CC(=O)Nc3ccc([N+](=O)[O-])cc3)CC2)c1` : call = ?
Reply: active

Query: Entry `COCCn1c(C)cc(C(=O)COC(=O)CNC(=O)c2ccco2)c1C` : call = ?
Reply: inactive

Query: Entry `C/C(=C(\C#N)C(=O)NCCCN1CCOCC1)N(C)C` : call = ?
Reply: inactive

Query: Entry `CC(=O)Nc1ccc(S(=O)(=O)N2CCN(S(=O)(=O)c3cccs3)CC2)cc1` : call = ?
Reply: inactive

Query: Entry `Cn1cc(-c2nc3cncnc3n(-c3ccccc3)c2=O)c2ccccc21` : call = ?
Reply: inactive

Query: Entry CC(Sc1nncn1C)C(=O)Nc1ccccc1-c1ccccc1 (stereo unspecified) : call = ?
Reply: inactive

Query: Entry `Cc1ccc(S(=O)(=O)N2CCN(C(=O)COC(=O)CNC(=O)c3ccc(C(C)(C)C)cc3)CC2)c(C)c1` : call = ?
Reply: inactive

Query: Entry `CN(C(=O)CSc1nnc(N)s1)c1c(N)n(Cc2ccccc2)c(=O)[nH]c1=O` : call = ?
Reply: inactive

Query: Entry `CCCNCc1cc(OCC)c(OCC(=O)Nc2ccccc2)cc1Br` : call = ?
Reply: inactive

Query: Entry `Cc1cc(=O)oc2c3c(cc(OCC(=O)NCCC(=O)N[C@@H](C)C(=O)O)c12)OC(C)(C)CC3` : call = ?
Reply: inactive

Query: Entry COc1ccc(S(=O)(=O)NC2(C(F)(F)F)N=C3SCCN3C2=O)cc1 (stereo unspecified) : call = ?
Reply: inactive

Query: Entry `CC1CCN(C(=O)CSc2nnc(-c3ccco3)n2N)CC1` : call = ?
Reply: inactive

Query: Entry `FC(F)(F)c1cccc(-c2nc(COc3ccc(Cl)cc3Cl)no2)c1` : call = ?
Reply: inactive

Query: Entry `C=CCNC(=O)CCCOc1cccc(C)c1` : call = ?
Reply: inactive

Query: Entry `CN(C)CCNC(=O)Cc1ccc([N+](=O)[O-])cc1` : call = ?
Reply: inactive

Query: Entry `Cc1snc(SCc2c(F)cccc2Cl)c1C#N` : call = ?
Reply: inactive

Query: Entry `Cc1ccc(OCc2nnc(NC(=O)OCC(C)C)s2)cc1` : call = ?
Reply: inactive

Query: Entry OC(CNCC1CCCO1)Cn1c2ccc(Br)cc2c2cc(Br)ccc21 (stereo unspecified) : call = ?
Reply: active

Query: Entry `CCOc1c2ccc(C(=O)NCc3ccc(OC(F)(F)F)cc3)cc2nn1C` : call = ?
Reply: inactive

Query: Entry `COc1ccc(NC(=O)CCCOc2ccc(C(C)=O)cc2)cc1S(=O)(=O)N1CCCCC1` : call = ?
Reply: active

Query: Entry CC(=O)NCC(O)c1ccc([N+](=O)[O-])cc1 (stereo unspecified) : call = ?
Reply: inactive

Query: Entry COCCCNC(NC(=O)c1ccc(C)cc1)C(Cl)(Cl)Cl (stereo unspecified) : call = ?
Reply: active

Query: Entry `COc1ccccc1C(=O)NCCC(=O)NC1=NCCS1` : call = ?
Reply: inactive

Query: Entry `Cc1ccc2nc(SCC(=O)N3CCN(c4ccccc4)CC3)nc(=O)n2c1` : call = ?
Reply: inactive
